This section presents compounds with their documented growth values.
- System: RPMI-8226 leukemia
- Assay: NCI-60 one-dose screen, 48 h (100 = growth as untreated, 0 = no growth, -100 = all killed)
- Condition Context: 10 µM
- Procedure: Growth inhibition of the RPMI-8226 human tumor cell line is measured as a screen for anti-cancer activity. Cells are grown in 96 well plates and exposed to the test compound for 48 hours. Compounds are tested at a single concentration, which is 10^-5 M for most compounds. The reported endpoint is percent growth (GI% or GIPRCNT), where numbers from 0 - 100% represent growth inhibition, and numbers from -100% - 0 represent cell death. For example, a value of 40 represents 60% growth inhibition. […]
Compounds without any hit were thinned out: in the full panel of roughly 83,000, 20% have a hit.
Give a bare numeral; the unit % is implied.

Recorded growth, per entry:
COc1ccc2nc(/C=C/c3ccc(N(C)C)cc3)sc2c1	104
CC(C)c1[nH]nc2c(NCc3ccc(-c4ccccn4)cc3)nc(SCCN)nc12	-16.7
CCOC(=O)/C(C#N)=C(/C)C1CC1	98.4
COc1cc2nc(Sc3sc(N)nc3C)n(-c3ccc(Oc4ccccc4)cc3)c(=O)c2cc1OC	67.6
COc1cc(-c2cc(-c3cc(OC)c(OC)c(OC)c3)nc3nc(N)[nH]c(=O)c23)ccc1Oc1ccnc2cc(Cl)ccc12	19.7

The compound listed as `CC(C)c1ncc(CO)n1Cc1c(Cl)cccc1Cl` shows growth equal to 97.6

The compound listed as COc1ccc(C2C=C(c3ccc(Cl)c(Cl)c3)N=C3SC(C)=CN32)cc1OC (stereo not given) shows growth equal to 38.4

The compound listed as `COc1ccc(-c2nc3sc(-c4ccccc4)c(-c4ccccc4)n3c2/C=C/c2ccc(F)cc2)cc1` shows growth equal to 95.5

The compound listed as `CNC(=O)c1cc(Oc2ccc(NC(=O)Nc3ccc(Cl)c(OC(C)C)c3)c(F)c2)ccn1` shows growth equal to 26.8

The compound listed as `O=C/C=C/c1ccc([N+](=O)[O-])cc1Cl` shows growth equal to 82.1

====

- Tested on: OVCAR-4 ovarian
- Assay: NCI-60 one-dose screen, 48 h (100 = growth as untreated, 0 = no growth, -100 = all killed)
- Condition Context: 10 µM
Compounds without any hit were thinned out: in the full panel of roughly 83,000, 20% have a hit. Activity calls are given as the source filed them. Rule for the calls: active = growth percent below 10; inactive = the rest.
Measurement Kind: growth

Recorded growth, per entry:
O=C(NCc1cn(Cc2cccc(Oc3ccccc3)c2)nn1)c1cccnc1Nc1ccccc1	74.9% (inactive)
Cc1cc(Nc2cccc(F)c2)nc(NCc2ccccc2)n1	15.9% (inactive)
COC(=O)c1cnc2c(c1)Oc1ccccc1-c1ccnn1-2	103% (inactive)

The compound listed as Nc1nc2c(ncn2C2OC3COP(=O)(O)OC4C(COP(=O)(O)OC2C3O)OC(n2cnc3c(N)ncnc32)C4O)c(=O)[nH]1 (stereo unspecified) shows growth equal to 105% (inactive)

The compound listed as `Cc1nc2scc(-c3ccc(Cl)cc3)n2c(=O)c1CCN1CCOCC1` shows growth equal to 95.1% (inactive)

====

- Test system: NCI-H322M lung
- Assay: NCI-60 one-dose screen, 48 h (100 = growth as untreated, 0 = no growth, -100 = all killed)
- Condition Context: 10 µM
- Protocol: Growth inhibition of the NCI-H322M human Non-Small Cell Lung tumor cell line is measured as a screen for anti-cancer activity. Cells are grown in 96 well plates and exposed to the test compound for 48 hours. Compounds are tested at a single concentration, which is 10^-5 M for most compounds. The reported endpoint is percent growth (GI% or GIPRCNT), where numbers from 0 - 100% represent growth inhibition, and numbers from -100% - 0 represent cell death. […]
About 83,000 compounds went through this panel and 20% of them were active in at least one assay; those are over-represented in the sample as a whole.
This section presents molecules with their documented growth values.
Give a bare numeral; the unit % is implied.

COc1ccc(-c2nc(-c3nc4ccc(C)cc4[nH]3)c3ccccn23)cc1	50.3
Cc1ncc([N+](=O)[O-])n1CCOc1ccc(C(=O)/C=C/c2ccc(C(F)(F)F)cc2)cc1	66.4
COc1cccc2c1O/C(=C\c1ccc([N+](=O)[O-])s1)C2=O	82
CC(=O)[C@H]1CC[C@H]2[C@@H]3CC[C@@H]4CC=C(C=O)C[C@]4(C)[C@H]3CC[C@]12C	97.6

The molecule listed as `Nc1c(C(=O)NC2CCCCC2)sc2nc3c(cc12)C(=O)CCC3` shows growth equal to 105

The molecule listed as `COc1cc2nc(Sc3sc(N)nc3C)n(-c3ccc(Oc4ccccc4)cc3)c(=O)c2cc1OC` shows growth equal to 123

The molecule listed as `C[C@]12CC[C@H]3[C@@H](CCC4=CC(=O)CC[C@@]43C)[C@@H]1CC[C@@H]2c1csc(N)n1` shows growth equal to 110

The molecule listed as `CCCCCCCCCCCCCC[n+]1ccc(C)cc1` shows growth equal to 5.57

The molecule listed as CC(C)C(C)C(N)C(=O)O (stereo not given) shows growth equal to 99

The molecule listed as `Nc1ncc(-c2ccc(C(F)(F)F)cc2)c(NC2CCCCCC2)n1` shows growth equal to 66.7
